- ASSAYED_TARGET: D(2) dopamine receptor (Homo sapiens, UniProt P14416)
- Sequence (P14416 whole entry): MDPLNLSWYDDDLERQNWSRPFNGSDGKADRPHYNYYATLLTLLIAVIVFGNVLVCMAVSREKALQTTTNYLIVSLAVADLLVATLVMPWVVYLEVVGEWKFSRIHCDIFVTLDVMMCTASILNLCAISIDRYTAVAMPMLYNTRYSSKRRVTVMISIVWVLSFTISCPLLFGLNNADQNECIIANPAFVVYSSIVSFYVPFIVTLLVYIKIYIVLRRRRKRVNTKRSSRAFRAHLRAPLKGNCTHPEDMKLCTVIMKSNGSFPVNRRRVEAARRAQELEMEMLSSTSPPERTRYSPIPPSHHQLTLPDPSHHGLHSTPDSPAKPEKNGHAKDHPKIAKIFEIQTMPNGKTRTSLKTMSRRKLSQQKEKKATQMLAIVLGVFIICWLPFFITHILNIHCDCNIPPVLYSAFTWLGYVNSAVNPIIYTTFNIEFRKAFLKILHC
- METHOD_SUMMARY: Displacement of [3H]spiperone from human dopamine D2(short) receptor in rat pituitary GH4C1 cells
pKi: −log10 of the molar value.
Label TRUE when pKi >= 5; otherwise FALSE.

Query: Does pKi meet or surpass 5 for O=C(N[C@H]1CCN(Cc2ccc(Cl)c(Cl)c2)C1)c1ccc(-c2cccs2)cc1 ?
Result: FALSE

Query: Also Cc1ccc(CN2CC[C@H](NC(=O)c3cccc(-c4cccs4)c3)C2)cc1 ?
Result: TRUE

###

- ASSAYED_TARGET: D(4) dopamine receptor (Homo sapiens, UniProt P21917)
- Sequence (P21917 whole entry): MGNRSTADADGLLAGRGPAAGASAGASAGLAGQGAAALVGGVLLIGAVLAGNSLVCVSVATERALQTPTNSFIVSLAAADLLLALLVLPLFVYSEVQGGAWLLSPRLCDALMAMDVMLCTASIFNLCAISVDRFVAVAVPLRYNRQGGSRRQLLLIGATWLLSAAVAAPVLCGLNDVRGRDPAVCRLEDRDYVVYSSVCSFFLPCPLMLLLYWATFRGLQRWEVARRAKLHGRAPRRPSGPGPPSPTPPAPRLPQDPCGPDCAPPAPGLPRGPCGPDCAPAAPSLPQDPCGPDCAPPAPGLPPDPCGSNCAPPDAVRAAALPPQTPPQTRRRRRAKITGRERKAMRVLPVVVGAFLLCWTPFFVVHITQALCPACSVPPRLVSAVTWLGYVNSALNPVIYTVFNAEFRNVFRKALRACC
- METHOD_SUMMARY: Displacement of [3H]spiperone from cloned human dopamine D4.2 receptor in […] cells
VALUE_TYPE: pKi
Numbers only, as −log10 of the molar value.

| ENTRY_SMILES | VALUE_TYPE | EXPERIMENTAL_VALUE |
| --- | --- | --- |
| O=C(N[C@H]1CCN(Cc2ccc(C(F)(F)F)cc2)C1)c1cccc(-c2cccs2)c1 | pKi | 7.68 |

Kindly give each listed record's pKi.
1. O=C(N[C@H]1CCN(Cc2ccc(OC(F)(F)F)cc2)C1)c1ccc(-c2cccs2)cc1
2. O=C(N[C@H]1CCN(Cc2ccc(Cl)cc2)C1)c1cccc(-c2cccs2)c1
3. O=C(N[C@H]1CCN(Cc2ccc(F)c(F)c2)C1)c1ccc(-c2cccs2)cc1

Result:
1. 7.11
2. 7.80
3. 7.85

Kindly give each listed record's pKi.
1. O=C(N[C@H]1CCN(Cc2ccc(F)cc2)C1)c1ccc(-c2cccs2)cc1
2. O=C(N[C@H]1CCN(Cc2cccc(C(F)(F)F)c2)C1)c1ccc(-c2cccs2)cc1
3. O=C(N[C@H]1CCN(Cc2ccc(OC(F)(F)F)cc2)C1)c1cccc(-c2cccs2)c1
4. O=C(N[C@H]1CCN(Cc2ccc3c(c2)OCO3)C1)c1ccc(-c2cccs2)cc1
5. O=C(N[C@H]1CCN(Cc2ccc(C(F)(F)F)cc2)C1)c1ccc(-c2cccs2)cc1

Result:
1: 8.30; 2: 7.66; 3: 7.28; 4: 8.15; 5: 7.85
